assay: Cytotoxicity (CytoTox-1 cell number) in the HCVcc assay; assay type: cell-based; conditions: human, Huh7.5 cells infected with HCVcc; HCVcc assay, Huh7.5 cells; CBD at 10 μM
PROPERTY: cytotoxicity at 72 h, 10 µM (%)

>>> numeric_readout("C=C(C)[C@@H]1CCC(C)=C[C@H]1c1c(O)cc(CCCCC)cc1O")
2.7

###

assay: Compound cytotoxicity (MTS cell viability) in the anti-hepatitis B assay; type: cell-based; details: human, HepG2 2.2.15 cells (stable HBV-producing line); HBV assay, HepG2 2.2.15 cells; CBD at 10 (title uM, row head pM)
PROPERTY: cytotoxicity at 6 days, 10 µM (%)

>>> numeric_readout("C=C(C)[C@@H]1CCC(C)=C[C@H]1c1c(O)cc(CCCCC)cc1O")
65.7
